B1: PPFIA4 (parent)
chain: VMTLPSDLRKHRRKLLSPVSREEN

- Variants of: B1
- test: protein stability index of a GFP-peptide fusion (GPS, HEK-293T) (PSI 1-6); higher = more stable;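 also: lentivirally expressed fusions sorted by FACS into six bins by GFP to DsRed ratio, PSI derived from sequencing read proportions per bin multiplied by bin number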
- condition-context: c terminus: a fixed tail appended
experimental-readout: protein stability index
Reply briefly: the number, and no unit.

For orientation, consider the following solved cases.
{"mutant-name": "V1P", "protein stability index": 4.27}
{"mutant-name": "L8Q", "protein stability index": 4.05}
{"mutant-name": "R21S", "protein stability index": 4.29}
{"mutant-name": "S6T", "protein stability index": 3.52}
{"mutant-name": "D7K", "protein stability index": 3.19}

Could you please provide reported protein stability index for T3K ? Thanks!
2.66

Could you please provide reported protein stability index for M2I ? Thanks!
3.12

Could you please provide reported protein stability index for V1Y ? Thanks!
3.21

Could you please provide reported protein stability index for S20N ? Thanks!
3.91

Could you please provide reported protein stability index for S20D ? Thanks!
4.01

Could you please provide reported protein stability index for L15M ? Thanks!
4.08

Could you please provide reported protein stability index for H11A ? Thanks!
3.42
